# System: SN12C renal
# MEASUREMENT_DESCRIPTION: NCI tumour cell line growth inhibition, 48 h
ASSAY_METRIC: TGI (µM)
Form entry: value (µM) — number only.

Worked examples, 4 molecules total:
>  <MOLECULE>
Cc1cccc2c(N)c3cccc(C(=O)NCCN(C)C)c3nc12

>  <ASSAYED_TARGET>
SN12C renal

>  <READING_UNIT>
µM

>  <TGI>
0.457

$$$$
>  <MOLECULE>
O=C1CN2C(Cl)(Cl)C2(c2ccccc2)c2cc(Cl)ccc2N1CC(F)(F)F (centres undefined)

>  <ASSAYED_TARGET>
SN12C renal

>  <READING_UNIT>
µM

>  <TGI>
30.6

$$$$
>  <MOLECULE>
C=C1CC(Cn2cc(C)c(=O)[nH]c2=O)(c2ccc(-c3ccccc3)cc2)OC1=O (centres undefined)

>  <ASSAYED_TARGET>
SN12C renal

>  <READING_UNIT>
µM

>  <TGI>
8.26

$$$$
>  <MOLECULE>
CC1=CCC[C@@H]2[C@@](C)(Cc3cc(O)ccc3O)[C@H](C)CC[C@@]12C

>  <ASSAYED_TARGET>
SN12C renal

>  <READING_UNIT>
µM

>  <TGI>
27

$$$$

For `Nc1ccccc1NC(=O)c1ccc(CN2CCC/C(=C\c3cccc(Cl)c3)C2=O)cc1` , write its TGI.
85.3

* * *

# Tested on: SK-MEL-28 melanoma
# MEASUREMENT_DESCRIPTION: NCI tumour cell line growth inhibition, 48 h
ASSAY_METRIC: TGI

# count of solved cases: 2
>  <STRUCTURE_SMILES_STRING>
CC(C)CC(=O)NC(NC(C)C)(C(F)(F)F)C(F)(F)F

>  <ASSAY_METRIC>
TGI

>  <OBS_VALUE>
> 100 µM

$$$$
>  <STRUCTURE_SMILES_STRING>
O=C(CCCc1ccccn1)c1ccccc1

>  <ASSAY_METRIC>
TGI

>  <OBS_VALUE>
> 100 µM

$$$$

Now examine the next entry.
Input `COc1ccc(/C=N/NC(=O)NCCCN(C)C)cc1` , output reported TGI.
> 100 µM

* * *

# System: MDA-MB-231 breast
# MEASUREMENT_DESCRIPTION: NCI tumour cell line growth inhibition, 48 h
Here the recorded TGI is given for each entry.

>  <MOLECULE>
CCCCCC(=O)OCC1(CO)C/C(=C\CC(C(C)C)C(C)C)C(=O)O1 (stereo unspecified)

>  <TGI>
> 100 µM

$$$$
>  <MOLECULE>
CC(=O)OC1CCC2(C)C(=CCC3C2CCC2(C)C(C(C)C(=O)O)CCC32)C1 (stereo unspecified)

>  <TGI>
> 100 µM

$$$$
>  <MOLECULE>
CN(C)c1ccc(/C=C(\NC(=O)c2ccccc2)C(=O)Nc2ccccc2C(=O)O)cc1

>  <TGI>
> 100 µM

$$$$
>  <MOLECULE>
Cc1cc(-c2nc(-c3ccc(OC(F)(F)F)cc3)no2)nn1Cc1ccnc(N2CCN(C3CC3)CC2)c1

>  <TGI>
> 78.7 µM

$$$$
>  <MOLECULE>
CO/N=C1/c2sccc2[C@H](NC(=O)C(F)(F)F)[C@@H]1O

>  <TGI>
> 100 µM

$$$$
>  <MOLECULE>
Cc1c(C(=O)O)c2cc3ccccc3cc2c(=O)n1C

>  <TGI>
> 10 µM

$$$$

Give recorded TGI. `C[C@]12C=CC(=O)C=C1CC[C@@H]1[C@@H]2C(=O)C[C@@]2(C)[C@H]1CC[C@]2(O)C(=O)CO`
> 100 µM

Provide only the value of recorded TGI for OCC1OC(n2nc(-c3ccccc3)nc2-c2cnccn2)C(O)C1O (stereo unspecified)
> 100 µM

Give the value of TGI reported for the following: `N=C(N)n1[nH]c2c(c1=O)CCCC2`
> 100 µM

Give TGI for the following molecule: COc1ccc(C(C2C(=O)N(C)C(=O)N(C)C2=O)C(F)(F)C(=O)N(C)C)cc1 (stereo unspecified)
> 100 µM

Name the recorded TGI of the item `Cc1ccccc1N=Nc1c(O)[nH]c2ccccc12` in your answer.
> 100 µM

* * *

The reader will find reported TGI values listed item by item below.
# Tested on: COLO 205 colon
# MEASUREMENT_DESCRIPTION: NCI tumour cell line growth inhibition, 48 h
Value expressed in µM; do not type the unit.

Take a look at these entries with their results.
>  <COMPOUND>
CCOc1ccc2c(ccc(/C=C\c3cc(C)c4cccnc4c3O)[n+]2C)c1

>  <ASSAY_METRIC>
TGI

>  <READING_UNIT>
µM

>  <OBS_VALUE>
5.82

$$$$
>  <COMPOUND>
COC(=O)[C@@]1(C)CC[C@]2(C)CC[C@]3(C)C4=CC=C5C(=CC(=O)C(O)=C5C)[C@]4(C)CC[C@@]3(C)[C@@H]2C1

>  <ASSAY_METRIC>
TGI

>  <READING_UNIT>
µM

>  <OBS_VALUE>
0.437

$$$$
>  <COMPOUND>
COc1ccc(/C=C/c2cc(N3CCOCC3)c3cc(F)c(F)cc3n2)cc1OC

>  <ASSAY_METRIC>
TGI

>  <READING_UNIT>
µM

>  <OBS_VALUE>
3.81

$$$$
>  <COMPOUND>
COC(=O)[C@H](CC(C)C)NC(=O)NC(=O)NC(=O)CI

>  <ASSAY_METRIC>
TGI

>  <READING_UNIT>
µM

>  <OBS_VALUE>
3.47

$$$$
>  <COMPOUND>
CC1OC(OC2CC(O)C3(CO)C4C(O)CC5(C)C(C6=CC(=O)OC6)CCC5(O)C4CCC3(O)C2)C(O)C(O)C1O (centres undefined)

>  <ASSAY_METRIC>
TGI

>  <READING_UNIT>
µM

>  <OBS_VALUE>
0.116

$$$$

Output measured TGI for this item: `CC(C)[Si](OC1=C(C(=O)N(C)c2ccccc2Cl)CCC1)(C(C)C)C(C)C`
34.3

Tell me TGI reported for `O=c1[nH]c(SCc2c(Cl)c(Cl)c(Cl)c(Cl)c2Cl)nc(=S)[nH]1`
33.8

Let me know recorded TGI for `N#Cc1c(-c2ccccc2)cc(-c2ccccc2)n(CCCCC(=O)NO)c1=O` , thanks.
7.76

Identify TGI associated with the compound `O=[N+]([O-])c1cccc2nc3ccccc3c(NCCCN3CCOCC3)c12`
0.0303

Quickly give me recorded TGI for `CCOC(=O)c1cc2c([nH]1)C(=O)CC1=C2CCN1Cc1ccccc1`
31.8

For the compound `O=C(OCC12CC3CC(CC(C3)C1)C2)c1ccc(NCc2cc(O)ccc2O)cc1` , give its measured TGI value.
2.8

* * *

Let's look at some compounds and their measured TGI.
# Tested on: ACHN renal
# MEASUREMENT_DESCRIPTION: NCI tumour cell line growth inhibition, 48 h

>  <COMPOUND>
O=C1CN2C(Cl)(Cl)C2(c2ccccc2)c2cc(Cl)ccc2N1CC(F)(F)F (stereo not drawn)

>  <TGI>
> 100 µM

$$$$
>  <COMPOUND>
CC12CC[C@H](O)C(C)(C)[C@H]1CC[C@](C)(O)C2COc1ccc2ccc(=O)oc2c1 (stereo partly drawn)

>  <TGI>
> 100 µM

$$$$
>  <COMPOUND>
Cc1c[nH]c(C(=O)O)c1-c1ccc2c(-c3ccccc3)nc3ccccc3n12

>  <TGI>
> 100 µM

$$$$
>  <COMPOUND>
O=c1c2ccccc2c(=O)c2c1cc(Cl)c1[nH]c3c([nH]c12)c(Cl)cc1c(=O)c2ccccc2c(=O)c13

>  <TGI>
> 100 µM

$$$$
>  <COMPOUND>
Oc1c(-c2ccccc2)sc2ccccc12

>  <TGI>
> 100 µM

$$$$
>  <COMPOUND>
C=C(C)[C@@H]1CCC2=C[C@@H](OC2=O)[C@@H](C(=C)C)C(=O)/C=C(/C)C(=O)C1

>  <TGI>
> 100 µM

$$$$
>  <COMPOUND>
CNc1ccc(-c2cc(=O)oc3ccc(Cl)cc23)cc1

>  <TGI>
> 100 µM

$$$$
>  <COMPOUND>
CC(=O)OC[C@]12CC[C@@H]([C@@H](C)C(N)=O)[C@@H]1[C@H]1CC[C@@H]3[C@@]4(C)CC[C@H](OC(C)=O)C(C)(C)[C@@H]4CC[C@@]3(C)[C@]1(C)CC2

>  <TGI>
27.3 µM

$$$$
>  <COMPOUND>
Nc1ccccc1NC(=O)c1ccc(CN2CCC/C(=C\c3cccc(Cl)c3)C2=O)cc1

>  <TGI>
6.32 µM

$$$$
>  <COMPOUND>
C=C1CCC2C3(C)COC(c4ccc(SC)cc4)OC3CCC2(C)C1C/C=C1/C(=O)OCC1O (stereo not drawn)

>  <TGI>
17.2 µM

$$$$

Provide measured TGI value, entry: COc1cccc(C2NC(=S)NC(C)=C2C(=O)Nc2ccc(F)c(Cl)c2)c1 (stereo not drawn)
> 50 µM

Given the compound `COc1ccc(-c2cc(/C=C3\C(=O)Nc4ccc(OC)cc43)[nH]n2)cc1` , write its reported TGI.
> 100 µM

# return recorded TGI for input CC1OC(OC2CC(O)C3(CO)C4C(O)CC5(C)C(C6=CC(=O)OC6)CCC5(O)C4CCC3(O)C2)C(O)C(O)C1O (stereo not drawn)
0.0191 µM
